Target of assay: CXCR3 (Homo sapiens, UniProt P49682)
Construct: host or cells: CHO-K1 (cAMP Hunter CHOK1 CXCR3 Gi cell line)
Sequence (P49682 1-368): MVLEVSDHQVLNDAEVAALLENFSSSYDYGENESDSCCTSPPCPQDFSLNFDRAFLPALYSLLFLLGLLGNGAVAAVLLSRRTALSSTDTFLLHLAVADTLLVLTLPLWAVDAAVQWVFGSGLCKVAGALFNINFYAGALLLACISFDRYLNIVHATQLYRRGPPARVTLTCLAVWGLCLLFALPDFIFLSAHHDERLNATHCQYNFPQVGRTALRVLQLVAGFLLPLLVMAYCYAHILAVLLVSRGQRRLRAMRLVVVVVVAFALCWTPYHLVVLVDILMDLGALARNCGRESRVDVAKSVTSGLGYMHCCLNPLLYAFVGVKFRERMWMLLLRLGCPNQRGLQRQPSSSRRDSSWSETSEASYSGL
Experimental details: CXCR3 cAMP agonist assay (cAMP Hunter CHOK1 CXCR3 Gi cell line, forskolin-stimulated, HitHunter cAMP detection)
Format: cell-based
Details: cAMP Hunter CHOK1 CXCR3 Gi cells, 20 μM forskolin, 30 minutes; read-out: Activity (CXCR3 cAMP agonist assay compound EC50)
pEC50: −log10 of the molar value.
Readout type: pEC50

Check out these entries, answers already filled in.
NCC[C@H](NC(=O)[C@@H]1Cc2ccccc2CN1C(=O)CCC(=O)c1ccccc1)C(=O)Nc1ccc(C(F)(F)F)c(Cl)c1 :: < 6.30
CC1(C)CCCCN1C(=O)CCC(=O)N1Cc2cc(F)ccc2C[C@H]1C(=O)N[C@@H](CCN)C(=O)Nc1ccc(Cl)c(Cl)c1F :: > 7.30
Cc1cc(NC(=O)[C@H](CCN)NC(=O)[C@@H]2Cc3ccccc3CN2C(=O)CCC(=O)N2CCCC2c2ccccc2)ccc1Cl (stereo partly shown) :: > 7.30
Cc1cc(NC(=O)[C@H](CCN)NC(=O)[C@@H]2Cc3ccccc3CN2C(=O)CCC(=O)N(C)C(C)(C)C)ccc1Cl :: > 7.30
Cc1cc(NC(=O)[C@H](Cc2cncs2)NC(=O)[C@@H]2Cc3ccccc3CN2C(=O)CCC(=O)c2ccccc2)ccc1Cl :: 6.60 to 7.30
COC1CCN(CC[C@H](NC(=O)[C@@H]2Cc3ccccc3CN2C(=O)CCC(=O)c2ccccc2)C(=O)Nc2ccc(Cl)c(C)c2)CC1 :: 6.60 to 7.30
Cc1cc(NC(=O)[C@H](CCN)NC(=O)[C@@H]2Cc3ccccc3CN2C(=O)CCC(=O)N2CCC(F)(F)CC2)ccc1Cl :: > 7.30
NCC[C@H](NC(=O)[C@@H]1Cc2ccccc2CN1C(=O)CCC(=O)c1ccccc1)C(=O)Nc1cc(F)c(Cl)c(Cl)c1 :: 6.60 to 7.30

Just so you know, measured pEC50 for `NCC[C@H](NC(=O)[C@@H]1Cc2ccccc2CN1C(=O)CCC(=O)c1ccccc1)C(=O)Nc1cnc2ccccc2c1` came out at > 7.30

Just so you know, measured pEC50 for `Cc1cc(NC(=O)[C@H](CCN)NC(=O)[C@@H]2Cc3ccccc3CN2C(=O)CCC(=O)N2CCC(C)(C)C2)ccc1Cl` came out at > 7.30

* * *

Target of assay: CXCR3 (Homo sapiens)
Construct: host or cells: CHO-K1 (cAMP Hunter CHOK1 CXCR3 Gi cell line)
Experimental details: CXCR3 cAMP agonist assay (cAMP Hunter CHOK1 CXCR3 Gi cell line, forskolin-stimulated, HitHunter cAMP detection)
Type: cell-based
Details: cAMP Hunter CHOK1 CXCR3 Gi cells, 20 μM forskolin, 30 minutes; read-out: Activity (CXCR3 cAMP agonist assay compound EC50)
Readout type: EC50

Check out these entries, answers already filled in.
Cc1cc(Cl)ccc1NC(=O)[C@H](CCN)NC(=O)[C@@H]1Cc2ccccc2CN1C(=O)CCC(=O)c1ccccc1 :: 250 to 500 nM
Cc1cc(NC(=O)[C@H](CCNC(=N)N)NC(=O)[C@@H]2Cc3ccccc3CN2C(=O)CCC(=O)c2ccccc2)ccc1Cl :: < 50 nM
NCC[C@H](NC(=O)[C@@H]1Cc2ccccc2CN1C(=O)CCC(=O)c1ccccc1)C(=O)Nc1ccc2ccccc2c1 :: < 50 nM
CC1(C)CCCN1C(=O)CCC(=O)N1Cc2ccccc2C[C@H]1C(=O)N[C@@H](CCN)C(=O)Nc1ccc(Cl)c(Cl)c1F :: < 50 nM
NCC[C@H](NC(=O)[C@@H]1Cc2ccccc2CN1C(=O)CCC(=O)N1CCCC12CCC2)C(=O)Nc1ccc2c(c1)CCC2 :: < 50 nM

From here, focus on the item given below.
Just so you know, measured EC50 for `Cc1cc(NC(=O)[C@H](CCN)NC(=O)[C@@H]2Cc3ccccc3CN2C(=O)CCC(=O)N2CCCCC23CCC3)ccc1Cl` came out at < 50 nM
